Reference source: the RNAGym collection of RNA variant scans (doi:10.1002/anie.201605470)

B1: Osa-1-4 twister ribozyme (parent)
chain: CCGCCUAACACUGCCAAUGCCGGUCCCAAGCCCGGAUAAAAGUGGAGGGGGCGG

# Variants of: B1
# experiment: self-cleavage, relative activity (ratio to wild type); higher = more cleavage; co-transcriptional
Reported self-cleavage values for a set of variants
readout_name: self-cleavage

> print(dat)
                                    sequence  result
 1  CCGCCUAACACUGCCAAUGCCGCUCCCAAUCCCGGAUAAAAGUGGAGGGGGCGG    0.02
 2  CCGCCUAUCACUGCCAAUGCCGGUCCCAAGCCCGGAUAAAAGCGGAGGGGGCGG    0.08
 3  CCGCCUAACACUGCCAAUGCCGGUCCCCAGCCCGGAUAAAAGUGGAGGGGGCGU    0.95
 4  CCGCCUAACACUGCCAAUGCCGGUCCCAAGCCCGGAUACAAGUGGAUGGGGCGG     0.1
 5  CCGCCUAACACUGCCAAUGCCGGUCCGAAGCCCGGAUAAGAGUGGAGGGGGCGG    0.09
 6  CCGCCUAACACUGCCAAUGCCGGUCCCAAACCCUGAUAAAAGUGGAGGGGGCGG    0.04
 7  CCGCCUAACACUGCCUAUGCCGGUCCCAAGCCCGGAUAAAAGUGGAGGGGGCCG     0.1
 8  CCGCCUAACACUGCCAAUGCAGGUCGCAAGCCCGGAUAAAAGUGGAGGGGGCGG    0.09
 9  CCGCCUAACACUGCCAACGCCGGUCCCAAGCCCGGAUAAAAAUGGAGGGGGCGG    0.44
10  CCGCCUAACUCUGCCAAUGCCGGUCCCAAGUCCGGAUAAAAGUGGAGGGGGCGG    0.05
11  CCGCCUAACACUGCCAAUGCCGGUCCCAAGCCCGGAUAAAAGUGGAGGAGGGGG     0.2
12  CCGCCUAACACUGCCAAUGCCGGUGCCAAGACCGGAUAAAAGUGGAGGGGGCGG    0.02
13  CCGCCUAACACUGCCAUUGCCGGUCCCAAGCCCGGAUCAAAGUGGAGGGGGCGG    0.98
14  CCGCCUAACACUGCCAAUCCCGGUCCCAAGCCCGGAUAAAAGUCGAGGGGGCGG    0.14
15  CCGCCUAACACUGCCAAUGCCCGUCCCAAGCCCGGAUAAAAGUGGAGGUGGCGG    0.03
16  CCGCCUAACAAUUCCAAUGCCGGUCCCAAGCCCGGAUAAAAGUGGAGGGGGCGG    0.04
17  CCGCCUAACACUGCCAAUGCCGGUCCCAAGCCCGGAUUAAAGUAGAGGGGGCGG    0.92
18  CCGCCUAUCACUGCCCAUGCCGGUCCCAAGCCCGGAUAAAAGUGGAGGGGGCGG    0.19
19  CCGCCUAACACUGCCAAUGCCGGUCCCAAGCCCGGUUAAAAGUGGAAGGGGCGG    0.32
20  CCGCCUAACACUGCAAAUGCUGGUCCCAAGCCCGGAUAAAAGUGGAGGGGGCGG    0.46
21  CCGCCUAACACUGCCAAUGCCGGUUCCAAACCCGGAUAAAAGUGGAGGGGGCGG    0.03
22  CCGCCUAACUCUGCCAAUGCCGGUCCCAAGCCCUGAUAAAAGUGGAGGGGGCGG    0.03
